- Test system: Pseudomonas aeruginosa PAO1 MB9798 (efflux+, IMP-1)
- SETUP CONDITIONS: ratio MITC95 PA 9798/MITC95 PA 9799; imipenem at 2 μg/mL
- Protocol: The strain background was Pseudomonas aeruginosa PAO1. The strain set was then used as a pair to determine the effect of metallo-β-lactamase inhibitors of Formula I on the MIC of imipenem and/or ceftazidime. […] A serial titration of the metallo-β-lactamase inhibitor was included and the concentration of metallo-β-lactamase inhibitor which restores susceptibility of the strain to the included antibiotic was recorded. […]
Labelling: Efflux ratio reported below 1 becomes Criterion met; at or above becomes Criterion not met.

QUERY: Just wondering, is Efflux ratio of CN([C@H]1CCNC1)S(=O)(=O)c1ccc(-c2cccc3sc(N)nc23)c(-c2nnn[nH]2)c1S(N)(=O)=O below 1?
RESULT: Criterion not met

QUERY: # strict comparison: is reported Efflux ratio < 1? input = NS(=O)(=O)c1c(S(=O)(=O)N2CCNCC2)ccc(-c2cccc3cn[nH]c23)c1-c1nnn[nH]1
RESULT: Criterion not met

QUERY: Regarding NC[C@@H](O)CNS(=O)(=O)c1ccc(-c2cccc3[nH]c(N)nc23)c(-c2nn[nH]n2)c1S(N)(=O)=O , kindly confirm whether its Efflux ratio is beneath 1.
RESULT: Criterion met

QUERY: Is it true that Efflux ratio reported for NCCNS(=O)(=O)c1ccc(-c2cccc(NC[C@@H](N)CO)c2)c(-c2nn[nH]n2)c1S(N)(=O)=O is less than 1?
RESULT: Criterion not met

QUERY: Determine whether this compound shows Efflux ratio lower than 1 (ties excluded): NCCNS(=O)(=O)c1ccc(-c2cccc3[nH]cnc23)c(-c2nn[nH]n2)c1S(N)(=O)=O
RESULT: Criterion met

QUERY: Is Efflux ratio strictly under 1 for the entry NCc1nc2c(-c3ccc(S(=O)(=O)N[C@@H](CN)CO)c(S(N)(=O)=O)c3-c3nn[nH]n3)cccc2[nH]1 ?
RESULT: Criterion not met

QUERY: Given the entry Nc1nc2c(-c3ccc(S(=O)(=O)NCCC(N)C(F)F)c(S(N)(=O)=O)c3-c3nnn[nH]3)cccc2s1.O=CO (centres unmarked) , would its reported Efflux ratio be below 1?
RESULT: Criterion not met

----------
- Test system: Pseudomonas aeruginosa PAO1 MB9798 (efflux+, IMP-1)
- SETUP CONDITIONS: ratio MITC95 PA 9798/MITC95 PA 9799; imipenem at 2 μg/mL
RESULT TYPE: Efflux ratio
// print number alone

Entry under test: CN(C)CCNS(=O)(=O)c1ccc(-c2cccc3sc(N)nc23)c(-c2nnn[nH]2)c1S(N)(=O)=O . Its Efflux ratio was 1.00

Lab note: measured Efflux ratio of Cn1c(N)nc2c(-c3ccc(S(=O)(=O)NCCCN)c(S(N)(=O)=O)c3-c3nn[nH]n3)cccc21 was 1.00

Field Efflux ratio (entry NC[C@@H](O)CNS(=O)(=O)c1ccc(-c2cccc3[nH]cnc23)c(-c2nn[nH]n2)c1S(N)(=O)=O ) reads 1.00

Value of Efflux ratio reported for the compound NCCNS(=O)(=O)c1ccc(-c2cccc3[nH]nnc23)c(-c2nn[nH]n2)c1S(N)(=O)=O is 1.00

Reported Efflux ratio of NCc1nc2c(-c3ccc(S(=O)(=O)N[C@@H](CN)CO)c(S(N)(=O)=O)c3-c3nn[nH]n3)cccc2s1 : 1.50

Efflux ratio recorded for this compound, NC[C@H](CO)NS(=O)(=O)c1ccc(-c2cccc(N)n2)c(-c2nn[nH]n2)c1S(N)(=O)=O , is 2.00

Looking up CC1(NS(=O)(=O)c2ccc(-c3cccc4[nH]c(N)nc34)c(-c3nn[nH]n3)c2S(N)(=O)=O)CNC1 , I see its Efflux ratio listed as 1.00

----------
- Tested on: Serratia marcescens expressing IMP-1 (CL5741)
- Type: cell-based
- SETUP CONDITIONS: with imipenem 1 μg/ml; 95% inhibition of bacterial growth
Answer each item with its documented Serratia marcescens (IMP-1) MITC95.
Just the number please, in µM, no unit attached.

So, NCCNS(=O)(=O)c1ccc(C2=CC(N)CCC2)c(-c2nn[nH]n2)c1S(N)(=O)=O (centres unmarked) [Example 338] ? Its Serratia marcescens (IMP-1) MITC95 was 1.563

Field Serratia marcescens (IMP-1) MITC95 (entry C[C@H](N)Cc1nc2c(-c3ccc(S(N)(=O)=O)c(S(N)(=O)=O)c3-c3nn[nH]n3)cccc2[nH]1 [Example 442] ) reads 1.563

Per the records, this molecule ( Nc1nc2c(-c3ccc(S(=O)(=O)N[C@@H]4C[C@H]4N)c(S(N)(=O)=O)c3-c3nnn[nH]3)cccc2[nH]1 [Example 448] ) has Serratia marcescens (IMP-1) MITC95 equal to 1.563

Measured Serratia marcescens (IMP-1) MITC95 of C[C@@H](N)CNS(=O)(=O)c1ccc(-c2ccnc(N)c2)c(-c2nn[nH]n2)c1S(N)(=O)=O [Example 422] : 0.7813

The recorded Serratia marcescens (IMP-1) MITC95 for entry NC[C@H](N)CNS(=O)(=O)c1ccc(-c2cnc3cc[nH]c3c2)c(-c2nn[nH]n2)c1S(N)(=O)=O [Example 373] equals 1.563

Reported Serratia marcescens (IMP-1) MITC95 of NCCNS(=O)(=O)c1ccc(-c2cccc(NC(=O)[C@@H](N)CN)c2)c(-c2nn[nH]n2)c1S(N)(=O)=O [Example 453] : 3.125

Entry under test: Nc1ncc(-c2ccc(S(=O)(=O)N[C@H]3CNC[C@H]3N)c(S(N)(=O)=O)c2-c2nn[nH]n2)s1 [Example 325] . Its Serratia marcescens (IMP-1) MITC95 was 1.563

Serratia marcescens (IMP-1) MITC95 measured on NCC(CN)NS(=O)(=O)c1ccc(-c2cccc3ccc(N)nc23)c(-c2nn[nH]n2)c1S(N)(=O)=O [Example 430] = 1.563

The molecule listed as NCCNS(=O)(=O)c1ccc(-c2cccc3sc(CN)nc23)c(-c2nn[nH]n2)c1S(N)(=O)=O [Example 345] shows Serratia marcescens (IMP-1) MITC95 equal to 0.7813

Form field Serratia marcescens (IMP-1) MITC95, entry Nc1ncc(-c2cccc(-c3ccc(S(=O)(=O)N[C@@H]4CCNC4)c(S(N)(=O)=O)c3-c3nnn[nH]3)n2)[nH]1 [Example 439] : 1.563

// Cn1c(N)nc2c(-c3ccc(S(=O)(=O)NC[C@H](O)CN)c(S(N)(=O)=O)c3-c3nn[nH]n3)cccc21 [Example 302] : Serratia marcescens (IMP-1) MITC95 value = 0.7813

Field Serratia marcescens (IMP-1) MITC95 (entry CC1(NS(=O)(=O)c2ccc(-c3cccc4[nH]c(N)nc34)c(-c3nn[nH]n3)c2S(N)(=O)=O)CNC1 [Example 257] ) reads 0.7813

Data point: NCC(CN)NS(=O)(=O)c1ccc(-c2cccc(-c3cnc(N)[nH]3)n2)c(-c2nnn[nH]2)c1S(N)(=O)=O [Example 438] ; Serratia marcescens (IMP-1) MITC95 = 3.125

Lookup result for NCc1nc2c(-c3ccc(S(=O)(=O)NC[C@@H]4CNCCN4)c(S(N)(=O)=O)c3-c3nn[nH]n3)cccc2[nH]1 [Example 311] ; measured Serratia marcescens (IMP-1) MITC95: 1.563

----------
Task for the reader: assign each of the following compounds its reported Efflux ratio.
- Test system: Pseudomonas aeruginosa PAO1 MB9798 (efflux+, IMP-1)
- SETUP CONDITIONS: ratio MITC95 PA 9798/MITC95 PA 9799; imipenem at 2 μg/mL
I only need the number, thanks.

// Nc1nc2c(-c3ccc(S(=O)(=O)NCCC4CNC4)c(S(N)(=O)=O)c3-c3nnn[nH]3)cccc2s1 [Example 30] : Efflux ratio value = 1.00

Lab note: Cn1c(N)nc2c(-c3ccc(S(=O)(=O)NC[C@H](O)CN)c(S(N)(=O)=O)c3-c3nn[nH]n3)cccc21 [Example 302] gave Efflux ratio of 1.00

Form field Efflux ratio, entry NCCNS(=O)(=O)c1ccc(-c2cccc3ccc(N)nc23)c(-c2nn[nH]n2)c1S(N)(=O)=O [Example 355] : 1.00

Efflux ratio recorded for this compound, Nc1nc(-c2cccc(-c3ccc(S(=O)(=O)N[C@H]4CNC[C@H]4N)c(S(N)(=O)=O)c3-c3nn[nH]n3)c2)c[nH]1 [Example 327] , is 2.00

----------
- Tested on: Pseudomonas aeruginosa PAO1 MB9798 (efflux+, IMP-1)
- SETUP CONDITIONS: ratio MITC95 PA 9798/MITC95 PA 9799; imipenem at 2 μg/mL
Use 1 as the dividing line for Efflux ratio, with the line itself on the t side and lower values as f.

QUERY: Say whether NC1CCC(c2ccc(S(N)(=O)=O)c(S(N)(=O)=O)c2-c2nnn[nH]2)CC1 (stereo not drawn) [Example 165] shows Efflux ratio of 1 or more.
RESULT: t

QUERY: Does the compound NC[C@H](O)CNS(=O)(=O)c1ccc(-c2cccc3[nH]c(N)nc23)c(-c2nn[nH]n2)c1S(N)(=O)=O [Example 304] have recorded Efflux ratio that is 1 or more?
RESULT: f

QUERY: hey, is Efflux ratio for this one >= 1? NCCNS(=O)(=O)c1ccc(-c2cccc3[nH]c(N)nc23)c(-c2nn[nH]n2)c1S(N)(=O)=O [Example 12]
RESULT: f

QUERY: Is Efflux ratio for CN1CC(N(C)S(=O)(=O)c2ccc(-c3cccc4sc(N)nc34)c(-c3nnn[nH]3)c2S(N)(=O)=O)C1.O=C(O)C(F)(F)F [Example 107] at or above 1?
RESULT: t

QUERY: Evaluate CN(C1CNC1)S(=O)(=O)c1ccc(-c2cccc3[nH]c(N)nc23)c(-c2nn[nH]n2)c1S(N)(=O)=O [Example 255] : Efflux ratio at minimum 1?
RESULT: t

QUERY: # check: Efflux ratio of Nc1nc2c(-c3ccc(S(=O)(=O)NC4CCNCC4)c(S(N)(=O)=O)c3-c3nnn[nH]3)cccc2s1 [Example 32] is greater than or equal to 1
RESULT: f

QUERY: I'd appreciate it if you could say whether Nc1nc2c(-c3ccc(S(=O)(=O)N[C@H]4CN[C@H](CO)C4)c(S(N)(=O)=O)c3-c3nnn[nH]3)cccc2s1 [Example 78] has Efflux ratio at least equal to 1.
RESULT: f

QUERY: Decide: is the reported value of Efflux ratio for Cc1ccc(-c2ccc(S(=O)(=O)NCCN)c(S(N)(=O)=O)c2-c2nn[nH]n2)c2nc(N)[nH]c12 [Example 329] equal to or greater than 1?
RESULT: t

QUERY: Please check the record Nc1nc2c(-c3ccc(S(=O)(=O)N4CC[C@@H](F)[C@H](N)C4)c(S(N)(=O)=O)c3-c3nn[nH]n3)cccc2[nH]1 [Example 205] and state if its Efflux ratio is at or above 1.
RESULT: t

QUERY: Say whether CN1CC[C@@H](CNS(=O)(=O)c2ccc(-c3cccc4sc(N)nc34)c(-c3nnn[nH]3)c2S(N)(=O)=O)C1 [Example 76] shows Efflux ratio of 1 or more.
RESULT: f

QUERY: Hi, just wondering whether CN1CCN(S(=O)(=O)c2ccc(-c3cccc4sc(N)nc34)c(-c3nnn[nH]3)c2S(N)(=O)=O)CC1 [Example 27] shows Efflux ratio of 1 or higher.
RESULT: t

QUERY: Is it the case that COCCNS(=O)(=O)c1ccc(-c2cccc3sc(N)nc23)c(-c2nnn[nH]2)c1S(N)(=O)=O [Example 24] has Efflux ratio reaching or exceeding 1?
RESULT: t

QUERY: Determine whether this compound has Efflux ratio no lower than 1: Nc1nc2c(-c3ccc(S(=O)(=O)NC[C@H]4CCNC4)c(S(N)(=O)=O)c3-c3nnn[nH]3)cccc2s1 [Example 73]
RESULT: f

QUERY: Given NC[C@@H](N)CNS(=O)(=O)c1ccc(-c2cnc3cc[nH]c3c2)c(-c2nn[nH]n2)c1S(N)(=O)=O [Example 378] , state whether its Efflux ratio is at least 1.
RESULT: t

QUERY: Does C[C@H](N)c1nc2c(-c3ccc(S(=O)(=O)N[C@@H]4CCNC4)c(S(N)(=O)=O)c3-c3nn[nH]n3)cccc2[nH]1 [Example 272] have a reported Efflux ratio of at least 1?
RESULT: t

QUERY: hey, is Efflux ratio for this one >= 1? N#Cc1cccc(-c2ccc(S(=O)(=O)N[C@@H]3CCNC3)c(S(N)(=O)=O)c2-c2nnn[nH]2)c1N [Example 132]
RESULT: t
